- measurement-target: T1, Cynomolgus TNFR2-His (Sino 90102-C08H) (cynomolgus monkey, UniProt A0A2K5VET2 132-366)
- T1 construct: Bought protein; also called cynomolgus monkey TNFR2; recombinant cynomolgus monkey TNFR2 protein; not shown: His tag
- T1 sequence: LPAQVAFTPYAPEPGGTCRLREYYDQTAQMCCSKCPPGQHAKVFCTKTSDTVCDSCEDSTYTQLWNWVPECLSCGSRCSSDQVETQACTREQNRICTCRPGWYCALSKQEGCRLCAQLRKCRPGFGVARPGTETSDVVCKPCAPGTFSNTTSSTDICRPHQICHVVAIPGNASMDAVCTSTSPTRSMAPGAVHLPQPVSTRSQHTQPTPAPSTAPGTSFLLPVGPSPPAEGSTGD
- method-notes: ELISA, cynomolgus TNFR2-His coated; EC50 against 001-WT
property-label: % Relative activity (WT antibody/test antibody) (%)
# output: bare number, implied unit %

In: Supply reported % Relative activity (WT antibody/test antibody) belonging to this binder: 001-Hu3 (antibody, V domains shown, Humanized form of #001; also called VH1 + VL3) VH: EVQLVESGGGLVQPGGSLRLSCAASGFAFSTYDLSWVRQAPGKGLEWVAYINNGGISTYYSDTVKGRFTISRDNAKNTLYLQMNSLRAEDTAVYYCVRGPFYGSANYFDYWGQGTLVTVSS VL: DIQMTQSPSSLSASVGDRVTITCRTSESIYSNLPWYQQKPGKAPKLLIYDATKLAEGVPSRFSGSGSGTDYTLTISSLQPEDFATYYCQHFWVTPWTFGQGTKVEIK
Out: 105
